# measured.target: CYP3A4 (Homo sapiens, UniProt P08684)
# Sequence (P08684 whole entry): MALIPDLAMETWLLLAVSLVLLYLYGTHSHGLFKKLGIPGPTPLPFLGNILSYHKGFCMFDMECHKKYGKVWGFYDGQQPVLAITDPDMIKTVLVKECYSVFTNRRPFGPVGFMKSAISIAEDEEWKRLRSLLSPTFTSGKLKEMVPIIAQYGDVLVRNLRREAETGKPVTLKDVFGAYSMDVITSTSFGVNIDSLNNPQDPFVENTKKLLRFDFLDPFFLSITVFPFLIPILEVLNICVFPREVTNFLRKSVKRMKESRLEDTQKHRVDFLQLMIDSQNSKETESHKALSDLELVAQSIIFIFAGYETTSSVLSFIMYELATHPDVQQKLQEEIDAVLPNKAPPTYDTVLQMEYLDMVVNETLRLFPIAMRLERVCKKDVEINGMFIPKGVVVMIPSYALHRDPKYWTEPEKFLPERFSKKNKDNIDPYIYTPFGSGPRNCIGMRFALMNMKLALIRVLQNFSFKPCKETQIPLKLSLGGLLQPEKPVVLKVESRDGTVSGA
# protocol.details: Inhibition of CYP3A4 in human liver microsomes using testosterone as substrate at 10 uM preincubated for 5 mins followed by NADPH addition by LC-MS/MS analysis relative to control
# Format: ADME, Microsome
# assay.setup: probe testosterone

| structure.string | inhibition at 10 µM (%) |
| --- | --- |
| CCN1CCc2cc(-c3nc(Nc4ccc(N5CCNCC5)cn4)ncc3F)ccc2C1=O | 12.4 |

----------
# protocol.details: Tmax in Sprague-Dawley rat 10 mg/kg, po by LC/MS/MS analysis
# Format: ADME, organism-based
# assay.setup: in vivo

| structure.string | Tmax, h |
| --- | --- |
| CCN1CCc2cc(-c3nc(Nc4ccc(N5CCNCC5)cn4)ncc3F)ccc2C1=O | 6 |

----------
# protocol.details: AUC (0 to infinity) in Sprague-Dawley rat 10 mg/kg, po by LC/MS/MS analysis
# Format: ADME, organism-based
# Parameters: time infinity, dose 10 mg/kg, route po
# assay.setup: in vivo

| structure.string | output.unit | AUC(0-inf) |
| --- | --- | --- |
| CCN1CCc2cc(-c3nc(Nc4ccc(N5CCNCC5)cn4)ncc3F)ccc2C1=O | ng·h/mL | 1610 |

----------
Measured IC50 of individual entries
# measured.target: CDK9/cyclin T1 (Homo sapiens, UniProt P50750)
# Sequence (O60563 whole entry): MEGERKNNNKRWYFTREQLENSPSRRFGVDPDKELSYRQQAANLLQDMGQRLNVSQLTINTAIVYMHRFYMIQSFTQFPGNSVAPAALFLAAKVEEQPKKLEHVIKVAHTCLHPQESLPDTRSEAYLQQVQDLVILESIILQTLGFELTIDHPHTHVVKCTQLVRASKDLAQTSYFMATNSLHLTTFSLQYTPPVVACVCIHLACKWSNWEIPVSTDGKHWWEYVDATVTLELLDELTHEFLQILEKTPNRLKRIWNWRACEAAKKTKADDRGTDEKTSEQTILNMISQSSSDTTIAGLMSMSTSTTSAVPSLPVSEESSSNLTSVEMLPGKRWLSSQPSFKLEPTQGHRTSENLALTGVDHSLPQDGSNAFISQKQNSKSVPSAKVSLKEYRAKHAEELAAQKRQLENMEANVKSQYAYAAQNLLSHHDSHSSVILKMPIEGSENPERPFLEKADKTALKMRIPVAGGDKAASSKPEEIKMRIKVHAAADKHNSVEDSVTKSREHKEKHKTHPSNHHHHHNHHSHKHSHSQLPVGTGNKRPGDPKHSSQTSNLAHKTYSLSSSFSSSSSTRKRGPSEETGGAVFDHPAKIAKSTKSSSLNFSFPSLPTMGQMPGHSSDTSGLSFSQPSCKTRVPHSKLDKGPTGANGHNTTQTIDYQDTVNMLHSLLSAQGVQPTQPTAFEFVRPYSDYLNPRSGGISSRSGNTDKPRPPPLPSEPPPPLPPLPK
# Sequence (P50750 whole entry): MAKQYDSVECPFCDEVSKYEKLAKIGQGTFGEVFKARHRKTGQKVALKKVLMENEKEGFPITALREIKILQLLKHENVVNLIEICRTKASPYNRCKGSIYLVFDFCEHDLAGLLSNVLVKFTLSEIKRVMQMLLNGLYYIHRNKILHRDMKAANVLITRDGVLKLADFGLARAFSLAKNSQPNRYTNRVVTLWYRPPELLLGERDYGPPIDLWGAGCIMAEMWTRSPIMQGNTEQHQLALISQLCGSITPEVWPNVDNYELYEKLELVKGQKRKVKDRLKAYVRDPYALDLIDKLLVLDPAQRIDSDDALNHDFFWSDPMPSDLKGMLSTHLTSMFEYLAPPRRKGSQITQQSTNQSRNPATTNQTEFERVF
# protocol.details: Inhibition of CDK9/Cyclin T1 (unknown origin) in presence of ATP by time resolved-FRET assay

| structure.string | IC50, nM |
| --- | --- |
| CN1CCc2cc(-c3nc(Nc4ccc(N5CCNCC5)cn4)ncc3F)ccc2C1=O | 1040 |
| CCN1CCc2cc(-c3nc(Nc4ccc(N5CCNCC5)cn4)ncc3F)ccc2C1=O | 2660 |
| CC(C)N1CCc2cc(-c3nc(Nc4ccc(N5CCNCC5)cn4)ncc3F)ccc2C1=O | 1960 |
| O=C1NCCc2cc(-c3nc(Nc4ccc(N5CCNCC5)cn4)ncc3F)ccc21 | 382 |

----------
# measured.target: CDK6/cyclin D1 (Homo sapiens, UniProt Q00534)
# Sequence (P24385 whole entry): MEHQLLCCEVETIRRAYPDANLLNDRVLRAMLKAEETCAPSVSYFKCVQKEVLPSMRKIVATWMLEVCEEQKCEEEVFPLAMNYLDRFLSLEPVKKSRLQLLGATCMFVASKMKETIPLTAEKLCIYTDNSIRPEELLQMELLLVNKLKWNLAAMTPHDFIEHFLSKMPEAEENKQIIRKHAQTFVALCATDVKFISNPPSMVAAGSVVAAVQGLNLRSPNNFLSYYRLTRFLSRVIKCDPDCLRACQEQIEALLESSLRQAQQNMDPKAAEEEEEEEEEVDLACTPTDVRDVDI
# Sequence (Q00534 whole entry): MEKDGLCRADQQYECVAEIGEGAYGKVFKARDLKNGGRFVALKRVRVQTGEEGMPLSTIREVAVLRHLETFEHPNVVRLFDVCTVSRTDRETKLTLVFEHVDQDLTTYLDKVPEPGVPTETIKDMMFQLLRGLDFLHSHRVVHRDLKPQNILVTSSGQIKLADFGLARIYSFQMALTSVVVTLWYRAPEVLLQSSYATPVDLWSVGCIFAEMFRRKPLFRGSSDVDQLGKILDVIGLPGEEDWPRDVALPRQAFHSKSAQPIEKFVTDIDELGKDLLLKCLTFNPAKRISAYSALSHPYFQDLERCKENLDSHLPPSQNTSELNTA
# protocol.details: Inhibition of CDK6/cyclin-D1 (unknown origin) in presence of ATP by time resolved-FRET assay
pIC50: −log10 of the molar value.

| structure.string | inequality.sign | pIC50 |
| --- | --- | --- |
| CC(C)(C)OC(=O)N1CCN(Cc2ccc(Nc3ncc(F)c(-c4ccc5c(c4)OCCO5)n3)nc2)CC1 | < | 5.00 |
| CC(C)N1CCN(Cc2ccc(Nc3ncc(F)c(-c4ccc5c(c4)CCC(=O)N5C(C)C)n3)nc2)CC1 | < | 6.00 |
| CC(C)(C)OC(=O)N1CCN(c2ccc(Nc3ncc(F)c(-c4ccc5c(c4)OCCO5)n3)nc2)CC1 | < | 5.00 |
| CC(C)(C)OC(=O)N1CCN(c2ccc(Nc3ncc(F)c(-c4ccc5c(c4)OCO5)n3)nc2)CC1 | < | 5.00 |
| CN1CCN(c2ccc(Nc3ncc(F)c(-c4ccc5c(c4)OCCO5)n3)nc2)CC1 | = | 6.18 |
| CN1CCc2cc(-c3nc(Nc4ccc(N5CCNCC5)cn4)ncc3F)ccc2C1=O | = | 7.49 |
| CCN1CCN(C(=O)c2ccc(Nc3ncc(F)c(-c4ccc5c(c4)OCO5)n3)nc2)CC1 | = | 6.48 |
| CC(C)N1CCN(Cc2ccc(Nc3ncc(F)c(-c4ccc5c(c4)OCCO5)n3)nc2)CC1 | = | 6.86 |
| CCN1CCc2cc(-c3nc(Nc4ccc(N5CCNCC5)cn4)ncc3F)ccc2C1=O | = | 7.80 |
| CC(C)N1CCN(C(=O)c2ccc(Nc3ncc(F)c(-c4ccc5c(c4)OCCC5=O)n3)nc2)CC1 | = | 6.44 |
| CC(C)N1CCN(C(=O)c2ccc(Nc3ncc(F)c(-c4ccc5c(c4)CCC(=O)N5C(C)C)n3)nc2)CC1 | < | 6.00 |
| CCN1CCN(C(=O)c2ccc(Nc3ncc(F)c(-c4ccc5c(c4)CCC(=O)N5C(C)C)n3)nc2)CC1 | = | 5.43 |
| CC(C)(C)OC(=O)N1CCN(C(=O)c2ccc(Nc3ncc(F)c(-c4ccc5c(c4)OCCO5)n3)nc2)CC1 | < | 5.00 |
| CC(C)N1CCc2cc(-c3nc(Nc4ccc(N5CCNCC5)cn4)ncc3F)ccc2C1=O | = | 7.38 |
| Fc1cnc(Nc2ccc(CN3CCNCC3)cn2)nc1-c1ccc2c(c1)OCCO2 | = | 6.87 |
